The measurements presented in this section are drawn from PubChem BioAssay (NCI).

Quick reference for GI50 among some compounds
System: SK-OV-3 ovarian
assayNotes: NCI tumour cell line growth inhibition, 48 h

GI50 measured on `COc1cccc2c(Nc3ccc(C(=O)NCCN(C)C)cc3)cc(-c3ccccc3)nc12` = 29.4 µM

GI50 measured on `COc1ccc2c(c1)C(=O)c1c-2n(CCCCl)c(=O)c2cc(N(C)C)ccc12` = 36.2 µM

GI50 measured on `c1ccc2c(c1)ccc1c3ccccc3ccc21` = > 50 µM

----------
Tested on: UO-31 renal
assayNotes: NCI tumour cell line growth inhibition, 48 h
measuredParameter: TGI

1) C=C1C(=O)O[C@H]2[C@H]1CC/C(COC(=O)C(=O)c1cn(C)c3ccc(OC)cc13)=C\CC[C@@]1(C)O[C@@H]21; 6.02 µM
2) CN(C)/C=N/S(=O)(=O)c1nn2c(C=O)c(-c3cc4ccccc4oc3=O)nc2s1; 4.84 µM
3) CN1CCN(c2c(O)c3c(c(O)c2Cl)C(=O)C=CC3=O)CC1; 1.22 µM
4) CCc1cccc(C(C)CC)c1NC(=O)CC1C(=O)Nc2ccccc2S1=O (centres undefined); > 100 µM
5) CCOC(=O)c1ccc(NC(NC(=O)CC)(C(F)(F)F)C(F)(F)F)cc1; > 100 µM

TGI measured on `Cc1ccc(-n2c(-c3ccc(Cl)cc3)cs/c2=N\NC(=O)COc2n[nH]c(=O)c3ccccc23)cc1` = > 100 µM

TGI measured on `CC1=N/C(=C\c2ccc([N+](=O)[O-])cc2)C(=O)O1` = > 100 µM

TGI measured on C=C1CO[C@@H]2C[C@@H]1CCC1(C)OC1CC/C(C)=C/CC[C@@]2(C)O (some centres undefined) = 29.5 µM

TGI measured on `Cc1cccc(N2C(=O)C(=O)C(c3nc4ccccc4s3)C(=O)C2=O)c1C` = > 100 µM

----------
System: HOP-92 NSCLC
assayNotes: NCI tumour cell line growth inhibition, 48 h; in the data active means GI50 below about 0.43 µM; inactive means the rest
Give your call using only these classes: true (1) (active), false (0) (inactive)

Some solved cases for reference:
1. C=C1CO[C@@H]2C[C@@H]1CCC1(C)OC1CC/C(C)=C/CC[C@@]2(C)O (stereo not given in full); false (0)
2. C=C(C(=O)OC)[C@@H]1C[C@@H](O)[C@]2(C)CC/C=C(\C)CCC[C@H](C)[C@H](O)C1O2; false (0)
3. COc1cccc(C2C(C#N)=C(N)Oc3cc(OC)ccc32)c1 (stereo not given); true (1)
4. Cc1ccc(-n2c(-c3ccc(Cl)cc3)cs/c2=N\NC(=O)COc2n[nH]c(=O)c3ccccc23)cc1; false (0)

Here is another compound to look at.
Inquiry: I'd appreciate the recorded outcome for `Clc1ccc(Nc2nc3ccccc3c3occc23)cc1` from this test.
Reply text: false (0)

----------
Test system: MDA-N
assayNotes: NCI tumour cell line growth inhibition, 48 h
Quick reference for TGI among some compounds

A selection of reference data follows.
1) O=C(CC(=O)Nc1ccccc1Cl)NNC(Sc1ccccc1)c1cc(N=Nc2ccc(Br)cc2)ccc1O (stereo unspecified); > 10 µM
2) CCCC1C(C#N)(C#N)C(C#N)=C(N)C1(C)C(C)=O (stereo unspecified); > 100 µM

TGI measured on CCOC(=O)C1=CN(C(=O)c2ccccc2)CCC1Cc1ccccc1 (stereo unspecified) = 44.4 µM

TGI measured on CCOC(=O)C12C(=O)CCN1CCc1ccccc1C2C (stereo unspecified) = > 100 µM

TGI measured on `C/C(=N\n1c(Cc2ccccc2)n[nH]c1=O)c1ccc([N+](=O)[O-])cc1` = > 100 µM

TGI measured on `O=[N+]([O-])c1ccc(-[n+]2ccc3ccccc3c2)c([N+](=O)[O-])c1` = 6 µM

----------
Test system: UACC-257 melanoma
assayNotes: NCI tumour cell line growth inhibition, 48 h
measuredParameter: TGI (µM)
Quick reminder: number only, in µM, skip the unit.

A selection of reference data follows.
1. Oc1ccc(-c2nc3ccc4[nH]ncc4c3c3c2CCCC3)c2cccnc12; 3.68
2. Cc1nc2ccccc2cc1C[N+]12CN3CN(CN(C3)C1)C2; 35.5
3. COC(=O)[C@]12CC[C@@H](C)[C@H](C)[C@@H]1C1=CC[C@@H]3[C@@]4(C)C=C(O)C(=O)C(C)=C4CC[C@@]3(C)[C@]1(C)CC2; 42.2

TGI measured on `CN1CCN(c2cc(Nc3cc(C4CC4)[nH]n3)nc(Nc3ccc(CC(=O)NCc4cccc(F)c4)cc3)n2)CC1` = 2.94

----------
System: LOX IMVI melanoma
assayNotes: NCI tumour cell line growth inhibition, 48 h; in the data active means GI50 below about 0.43 µM; inactive means the rest
Give your call using only these classes: active, inactive

Some solved cases for reference:
1. Nc1nc(Nc2ccc3c(c2)CCC(N2CCCC2)CC3)nn1-c1cc2c(nn1)-c1ccccc1CCC2 (configuration not stated); inactive
2. COc1ccc(/C=C/C(c2cc(OC)c(OC)c(OC)c2)n2cncn2)cc1O (configuration not stated); active
3. CC12CCC(O)CC1CCC1C2CCC2(C)C(C3=CC(=O)OC3)CCC12 (configuration not stated); active

Inquiry: I'd appreciate the recorded outcome for `Nc1c(O)c(S(=O)(=O)O)c(O)c2c1C(=O)c1ccccc1C2=O` from this test.
Reply text: inactive

Inquiry: I'd appreciate the recorded outcome for `COc1cc(/C=C/C(=O)c2cc(OC)c(OC)c(OC)c2)cc(OC)c1OC` from this test.
Reply text: inactive

Inquiry: I'd appreciate the recorded outcome for `c1ccc2c(c1)ccc1c3ccccc3ccc21` from this test.
Reply text: inactive

Inquiry: I'd appreciate the recorded outcome for `Cc1ccccc1NC(=O)c1sc2nc3c(cc2c1N)C(=O)CCC3` from this test.
Reply text: inactive

----------
Quick reference for TGI among some molecules
Test system: HOP-62 NSCLC
assayNotes: NCI tumour cell line growth inhibition, 48 h

1) COC(=O)[C@]12CC[C@@H](C)[C@H](C)[C@@H]1C1=CC[C@@H]3[C@@]4(C)C=C(O)C(=O)C(C)=C4CC[C@@]3(C)[C@]1(C)CC2; 35.9 µM

TGI measured on CC(C)(C)c1ccc(O)c(C(O)c2cccnc2)c1 (stereo unspecified) = > 100 µM

TGI measured on `CCOC(=O)/C=C1/Nc2cc(F)c(F)cc2NC1=O` = > 100 µM

----------
Tested on: PC-3 prostate
assayNotes: NCI tumour cell line growth inhibition, 48 h
Quick reference for TGI among some molecules
Quick reminder: number only, in µM, skip the unit.

TGI measured on `Oc1ccc(-c2nc3ccc4[nH]ncc4c3c3c2CCCC3)c2cccnc12` = 6.56

TGI measured on `OCCNc1nc2c(N3CCCC3)nc(N3CCNCC3)nc2nc1NCc1ccccc1` = 30.7

TGI measured on O=C(O)C(CO)NC(=O)C1C(C(=O)O)C(c2ccccc2[N+](=O)[O-])C=C(c2ccco2)N1c1ccncc1 (stereo not given) = 22.1

----------
Test system: SF-295 CNS
assayNotes: NCI tumour cell line growth inhibition, 48 h
measuredParameter: TGI (µM)
Quick reminder: number only, in µM, skip the unit.

1) CC(C)(C)c1nnc2n(c1=O)N=CC(c1ccc(Br)cc1)S2 (stereo not given); 58.9

TGI measured on CC(CN(C)C)C(=O)/C=C/c1ccc(Cl)c(Cl)c1 (stereo not given) = 12.9

----------
Quick reference for TGI among some compounds
Test system: MDA-N
assayNotes: NCI tumour cell line growth inhibition, 48 h

A selection of reference data follows.
1. O=[N+]([O-])c1ccc2c(c1)S(=O)c1ccccc1-2 (stereo not drawn); > 100 µM
2. CC(C)(C)c1cc(C2NC(=O)NC2=O)cc(C(C)(C)C)c1O (stereo not drawn); > 100 µM

TGI measured on `Cc1ccnc2sc3ccccc3c(=O)c12` = > 100 µM

TGI measured on CC(=O)N1C(OCc2ccccc2)CCN1c1ccccc1 (stereo not drawn) = > 10 µM

----------
System: SNB-75 CNS
assayNotes: NCI tumour cell line growth inhibition, 48 h
Quick reference for TGI among some molecules

A selection of reference data follows.
1) O=C(NNCc1ccccc1O)c1ccccc1O; > 100 µM
2) COc1cnnc2c(C)c(-c3ccccc3)nn12; > 100 µM
3) COc1ccc(Nc2c[nH]c(=O)[nH]c2=O)cc1; > 100 µM

Reading of TGI for `CN(/N=C/c1ccc(Cl)c(Cl)c1)C1=NCCN1` with SNB-75 CNS: > 100 µM

Reading of TGI for `CCOC(=O)CN(Cc1ccccc1)Cc1c(C(=O)c2ccccc2)c2ccccc2n1C(=O)c1ccccc1` with SNB-75 CNS: > 100 µM

Reading of TGI for `CC1=C(c2cc(C(=O)Nc3cccc(C(F)(F)F)c3)nc(NC#N)n2)Sc2ccccc2N1` with SNB-75 CNS: > 100 µM

----------
Test system: XF 498 CNS
assayNotes: NCI tumour cell line growth inhibition, 48 h
Quick reference for TGI among some compounds

A selection of reference data follows.
1. C=CCNC(=S)OCCCCCCCCCC; 29.7 µM
2. Cc1oc2c(C)c3oc(=O)cc(C)c3cc2c1CN; 73.8 µM
3. CCOC(=O)C1(C(=O)OCC)CC=C(C)CC12C(=O)Nc1ccccc12 (stereo not drawn); > 100 µM
4. CC(C)(C)C(=O)OCC(COC(=O)C(C)(C)C)[N+](=O)[O-]; > 100 µM
5. CC(C)c1ccc(O)c(=O)cc1; > 100 µM
6. O=c1c2cccnc2ncn1CCCN1CCOCC1; > 100 µM
7. CCOC(=O)CN(Cc1ccccc1)Cc1c(C(=O)c2ccccc2)c2ccccc2n1C(=O)c1ccccc1; > 100 µM

As a next step, examine the compound that follows.
TGI measured on `CCCN(CCC)c1c([N+](=O)[O-])cc(C(=O)N(C)C)cc1[N+](=O)[O-]` = > 100 µM
